# Read-out: adenosine kinase (ADK) gene, ADK (gene 132)
# protocol: LTEA_HepaRG_ADK: Life Technologies and Expression Analysis (LTEA) Assay for adenosine kinase (ADK) gene using HepaRG (AID 2283471)
# condition.details: mRNA level, 48 h; actives raise or lower the signal
Calls of active or inactive are those of the source. Rule for the calls: active = hit-call score of the fitted dose curve at least 0.9, where 1 is the maximum; inactive = score below 0.9.
// classify into active, inactive

Solved cases below.
| molecule | label |
| --- | --- |
| C[Si](Cn1cncn1)(c1ccc(F)cc1)c1ccc(F)cc1 | inactive |
| CCOP(=O)(NC(C)C)Oc1ccc(SC)c(C)c1 (stereo not given) | inactive |
| CCCSP(=O)(OCC)Oc1ccc(Br)cc1Cl (stereo not given) | inactive |
| CCCOc1nn(C(=O)NS(=O)(=O)c2ccccc2C(=O)OC)c(=O)n1C | inactive |
| N#CSCSC#N | inactive |

Entry FC(F)C(F)(F)OCC(Cn1cncn1)c1ccc(Cl)cc1Cl (stereo not given) : call = ?
inactive

// outcome(item) with item = CCNc1nc(Cl)nc(NC(C)(C)C#N)n1
inactive

Could you kindly confirm the outcome this assay logged for CCCCOC(=O)[C@@H](C)Oc1ccc(Oc2ccc(C#N)cc2F)cc1 ?
inactive

Lab log entry: C=C(C)[C@H]1Cc2c(ccc3c2O[C@@H]2COc4cc(OC)c(OC)cc4[C@@H]2C3=O)O1 — outcome as called in the assay?
inactive

// return assay outcome for CCOC(=O)COc1cc(-c2nn(C)c(OC(F)F)c2Cl)c(F)cc1Cl
inactive
